Assay: Bidirectional MDR1-MDCK monolayer permeability
Assay type: in vitro ADME, canine
Details: dog, MDCK-MDR1; 30 µM; read-out: Papp Basolateral → Apical
// reported Papp B→A at 30 µM per item
State just the number; it will be interpreted in ×10⁻⁶ cm/s.

{"columns": ["smiles repr", "measured parameter", "unit abbreviation", "endpoint result"],
 "data": [
  ["O=C(Nc1c(Cl)cncc1Cl)c1ccc(OC(F)F)c(OCC2CC2)c1", "Papp B→A at 30 µM", "×10⁻⁶ cm/s", 72.2]
]}

Now look at this entry.
Given the compound `O=C(O)Cc1ccc(Cc2cc(-c3cccc(Cl)c3)nc(C(F)(F)F)c2)cc1` , what is its reported Papp B→A at 30 µM?
126
